Biological target: A1 receptors (Rattus norvegicus)
Sequence (P25099 whole entry): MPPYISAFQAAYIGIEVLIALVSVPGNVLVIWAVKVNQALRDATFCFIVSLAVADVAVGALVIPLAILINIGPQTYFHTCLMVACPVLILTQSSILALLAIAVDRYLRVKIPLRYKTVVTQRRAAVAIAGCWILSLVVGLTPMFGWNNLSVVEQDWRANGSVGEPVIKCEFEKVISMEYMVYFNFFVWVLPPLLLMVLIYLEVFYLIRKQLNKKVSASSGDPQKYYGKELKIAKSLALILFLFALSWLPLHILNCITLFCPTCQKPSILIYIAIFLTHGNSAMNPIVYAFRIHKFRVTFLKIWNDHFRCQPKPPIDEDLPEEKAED
quantity_name: pKi
Interpret pKi as the negative base-10 log of the concentration measured in mol/L.

Consider Clc1ccc2nc(NC3CCCC3)c3nccn3c2c1 [COMPOUND EX. 18] . Its measured pKi is 7.63
